- System: GT1-7
- procedure_summary: Antiprion activity in human transmissible spongiform encephalopathies agent Fukuoka-1 prion infected GT1-7 cells assessed as proteinase K-resistant proteins at 10 uM after 3 days Western blotting analysis relative to control
- Format: cell-based
The source made the active and inactive calls. No cut-off for these calls is given here.
quantity_measured: Activity

Lab note: measured Activity of O=C(CN1CC[C@@H](F)C1)Nc1ccc(Cc2ccc(NC(=O)CN3CC[C@@H](F)C3)cc2)cc1 was 93%

Reported Activity of CN(C)[C@@H]1CCN(CC(=O)Nc2ccc(Cc3ccc(NC(=O)CN4CC[C@@H](N(C)C)C4)cc3)cc2)C1 : 31%

Form: compound = Nc1ccc(/N=N/c2ccccc2)c(N)c1 ; Activity = inactive

Lab note: CC(C)N(CC(=O)Nc1ccc(Cc2ccc(NC(=O)CN(C(C)C)C(C)C)cc2)cc1)C(C)C gave Activity of 20%

Noted for O=C(CN1CCC[C@H]1CO)Nc1ccc(Cc2ccc(NC(=O)CN3CCC[C@H]3CO)cc2)cc1 : its Activity reads 91%

---
Value of Activity reported for the compound NCC(=O)Nc1ccc(Cc2ccc(NC(=O)CN3CCCC3)cc2)cc1 is 62%

----------
- Test system: GT1-7
- procedure_summary: Antiprion activity in human transmissible spongiform encephalopathies agent Fukuoka-1 prion infected GT1-7 cells assessed as proteinase K-resistant proteins at 10 uM after 3 days Western blotting analysis relative to control
- Format: cell-based
quantity_measured: Activity

The value of Activity recorded for CC(=O)Nc1ccc(Cc2ccc(NC(C)=O)cc2)cc1 when tested on GT1-7 reads 84%

New cases:
// assay GT1-7, entry O=C(CN1CCCC1)Nc1ccc(Cc2ccc(NC(=O)CN3CCOCC3)cc2)cc1 , Activity value = 77%

Record for O=C(CN1CCCC1)Nc1ccccc1NC(=O)CN1CCCC1 under target or system GT1-7: Activity reported as 82%

----------
Attribute: Activity
- System: GT1-7
- procedure_summary: Antiprion activity in human transmissible spongiform encephalopathies agent Fukuoka-1 prion infected GT1-7 cells assessed as proteinase K-resistant proteins at 10 uM after 3 days Western blotting analysis relative to control
- Assay type: cell-based

Form field Activity for item O=C(CN1CCCC1)Nc1ccc(S(=O)(=O)c2ccc(NC(=O)CN3CCCC3)cc2)cc1 on GT1-7: 17%

Summary: Cc1cc(Cc2cc(C)c(NC(=O)CN3CCCC3)c(C)c2)cc(C)c1NC(=O)CN1CCCC1 , GT1-7, Activity = 22%

Measured Activity (GT1-7), entry COC(=O)[C@@H]1CCCN1CC(=O)Nc1ccc(Cc2ccc(NC(=O)CN3CCC[C@H]3C(=O)OC)cc2)cc1 : 61%

Record O=C(CNC1CCCC1)Nc1ccc(Cc2ccc(NC(=O)CNC3CCCC3)cc2)cc1 / GT1-7, Activity recorded as 26%

Summary: O=C(CN1CCCC1)Nc1ccc2c(c1)Cc1cc(NC(=O)CN3CCCC3)ccc1-2 , GT1-7, Activity = 45%

Record O=C(CN1CCCC1)Nc1ccc(CCc2ccc(NC(=O)CN3CCCC3)cc2)cc1 ; system GT1-7; Activity = 40%

***
Reported GT1-7 Activity for item O=C(CN1CCCC1)Nc1ccc(C(O)c2ccc(NC(=O)CN3CCCC3)cc2)cc1 was 62%

Activity on GT1-7 for O=C(CN1CCCC1)Nc1ccc(Cc2ccc(NC(=O)CN3CCCC3)cc2)cc1 is 25%

Entry NCC(=O)Nc1ccc(Cc2ccc(NC(=O)CN)cc2)cc1 : Activity on GT1-7 = 102%

Value sought: Activity, system GT1-7, item O=C(Cn1cccn1)Nc1ccc(Cc2ccc(NC(=O)Cn3cccn3)cc2)cc1 . Result: 106%

Entry COC(=O)[C@H]1CCCN1CC(=O)Nc1ccc(Cc2ccc(NC(=O)CN3CCC[C@@H]3C(=O)OC)cc2)cc1 , tested on GT1-7, has a reported Activity of 112%

Given the molecule CCCN(CCC)CC(=O)Nc1ccc(Cc2ccc(NC(=O)CN(CCC)CCC)cc2)cc1 and test system GT1-7, the measured Activity is 48%

Log: GT1-7, molecule O=C(CN1CCCC1)Nc1ccc(Sc2ccc(NC(=O)CN3CCCC3)cc2)cc1 , Activity = 22%

Simply: O=C(CN1CC[C@@H](O)C1)Nc1ccc(Cc2ccc(NC(=O)CN3CC[C@@H](O)C3)cc2)cc1 , GT1-7, Activity = 108%

Short answer on GT1-7 for O=C(CN1C(=O)CCC1=O)Nc1ccc(Cc2ccc(NC(=O)CN3C(=O)CCC3=O)cc2)cc1 , Activity: 90%

----------
- Tested on: GT1-7
- procedure_summary: Antiprion activity in human transmissible spongiform encephalopathies agent Fukuoka-1 prion infected GT1-7 cells assessed as proteinase K-resistant proteins at 10 uM after 3 days Western blotting analysis relative to control
- Type: cell-based
Recorded Activity for the following compounds

Lab book: Activity of CN(C(=O)CN1CCCC1)c1ccc(Cc2ccc(N(C)C(=O)CN3CCCC3)cc2)cc1 noted as 77%

Next:
Per the records, this compound ( O=C(Nc1ccc(Cc2ccc(NC(=O)c3ccccn3)cc2)cc1)c1ccccn1 ) has Activity equal to 122%

Entry O=C(CN1CCC[C@H]1C(F)(F)F)Nc1ccc(Cc2ccc(NC(=O)CN3CCC[C@H]3C(F)(F)F)cc2)cc1 — recorded Activity = 85%

Value of Activity reported for the compound O=C(CN1CCCC1)Nc1ccc(Cc2ccc(NC(=O)CN3CCC[C@@H]3CO)cc2)cc1 is 44%

Record O=C(CC1CCCC1)Nc1ccc(Cc2ccc(NC(=O)CC3CCCC3)cc2)cc1 , field Activity: 86%
